The reported numbers originate from the supplement of paper PMC10065799.

Here, each record is paired with measured phosphorylation enrichment data.
Biological target: EPHB1 (UniProt P54762)
Sequence (P54762 whole entry, looked up): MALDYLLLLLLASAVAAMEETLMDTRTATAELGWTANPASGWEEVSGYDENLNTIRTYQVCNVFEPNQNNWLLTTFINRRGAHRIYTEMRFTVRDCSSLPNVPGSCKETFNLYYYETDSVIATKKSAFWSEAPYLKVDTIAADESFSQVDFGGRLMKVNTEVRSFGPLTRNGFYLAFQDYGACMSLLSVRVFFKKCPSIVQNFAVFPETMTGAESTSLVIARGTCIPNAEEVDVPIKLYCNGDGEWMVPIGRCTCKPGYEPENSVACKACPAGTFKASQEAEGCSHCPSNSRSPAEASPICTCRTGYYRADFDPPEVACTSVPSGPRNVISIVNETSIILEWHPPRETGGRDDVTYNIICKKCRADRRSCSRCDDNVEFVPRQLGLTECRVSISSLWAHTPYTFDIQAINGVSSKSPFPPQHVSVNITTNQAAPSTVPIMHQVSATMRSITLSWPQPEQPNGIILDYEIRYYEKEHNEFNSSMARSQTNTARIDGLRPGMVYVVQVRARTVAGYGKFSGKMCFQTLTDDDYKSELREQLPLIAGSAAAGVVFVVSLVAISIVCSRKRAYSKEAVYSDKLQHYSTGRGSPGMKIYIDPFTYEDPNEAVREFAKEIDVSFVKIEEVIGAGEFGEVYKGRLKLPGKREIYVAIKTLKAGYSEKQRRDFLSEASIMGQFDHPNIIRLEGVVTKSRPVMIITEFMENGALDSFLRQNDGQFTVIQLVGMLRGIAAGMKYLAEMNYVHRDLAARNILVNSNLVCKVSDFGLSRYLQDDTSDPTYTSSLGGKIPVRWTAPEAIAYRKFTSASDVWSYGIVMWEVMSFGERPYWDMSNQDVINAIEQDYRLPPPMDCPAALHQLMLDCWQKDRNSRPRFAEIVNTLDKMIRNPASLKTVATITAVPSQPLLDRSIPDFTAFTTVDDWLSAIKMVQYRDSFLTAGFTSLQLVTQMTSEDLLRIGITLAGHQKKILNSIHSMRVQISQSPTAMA
Assay: phosphorylation enrichment, bacterial display (enrichment ratio); higher = better substrate or ligand; peptides without Tyr show the background;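 note: 11-residue human phosphosite peptides and single-mutation variants displayed on the E. coli surface, counted by deep sequencing, each peptide's frequency after selection divided by its frequency in the unselected input library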;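 note: frequency after pTyr selection over input frequency; kinase dosed for 20-30% of maximal phosphorylation in three min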
Result type: phosphorylation enrichment

- Sequence data: "QEGPEYWDRET [HLA-A_Y83_Q86R]"
  Result type: "phosphorylation enrichment"
  Observed measurement: 1.16
- Sequence data: "DVFVSYDCGKS [SORL1_Y139_Y141C_YF]"
  Result type: "phosphorylation enrichment"
  Observed measurement: 0.611
- Sequence data: "SNPAYYVLEGV [INPPL1_Y987_N982S]"
  Result type: "phosphorylation enrichment"
  Observed measurement: 0.769
- Sequence data: "EILLSDLRTGY [TGM1_Y365_Y365D]"
  Result type: "phosphorylation enrichment"
  Observed measurement: 0.367
- Sequence data: "AALVQYYMEHH [PTPN11_Y80_E76A]"
  Result type: "phosphorylation enrichment"
  Observed measurement: 1.9
- Sequence data: "HVSISYDIPLT [GAB1_Y307_P311L]"
  Result type: "phosphorylation enrichment"
  Observed measurement: 1.19
- Sequence data: "QGLRLYRPHLA [BTK_Y617]"
  Result type: "phosphorylation enrichment"
  Observed measurement: 0.515
- Sequence data: "GRFSGYKSKHG [EPHA3_Y570_C568S]"
  Result type: "phosphorylation enrichment"
  Observed measurement: 0.34
- Sequence data: "SVTCTYSAALN [TP53_Y126_P128A]"
  Result type: "phosphorylation enrichment"
  Observed measurement: 0.876
- Sequence data: "WAMLAYNRSKL [WWOX_Y293]"
  Result type: "phosphorylation enrichment"
  Observed measurement: 0.453
- Sequence data: "DRPASYLDKVR [KRT17_Y98_L95P]"
  Result type: "phosphorylation enrichment"
  Observed measurement: 0.446
- Sequence data: "TFTVSYLPDMS [FLNC_Y1602_YF]"
  Result type: "phosphorylation enrichment"
  Observed measurement: 0.631
- Sequence data: "RHTRSYDYTEG [FGF7_Y56_M59T]"
  Result type: "phosphorylation enrichment"
  Observed measurement: 0.407
- Sequence data: "DEFLEHRRIVG [FAM221A_Y20_Y20H_YF]"
  Result type: "phosphorylation enrichment"
  Observed measurement: 0.447

----------
Target: EPHB1 (UniProt P54762)
Assay: phosphorylation enrichment, bacterial display (enrichment ratio); higher = better substrate or ligand; peptides without Tyr show the background
Entry flag: condition met if phosphorylation enrichment reaches 0.7; condition not met if it does not.

- Sequence data: "FGDTPYIPFRD [CDC14C_Y132]"
  Discrete label: "condition not met"
- Sequence data: "GIFEDYVEGLR [MYL6_Y89_T85I_YF]"
  Discrete label: "condition met"
- Sequence data: "DERQPYAHMNG [IGF1R_Y1346]"
  Discrete label: "condition not met"
- Sequence data: "PYIDSYEKDVA [PGM1_Y521_L516P]"
  Discrete label: "condition met"
- Sequence data: "PSTFRYERGSR [INPPL1_Y663_P659S_YF]"
  Discrete label: "condition not met"
- Sequence data: "DVCKNYAKAKD [ALB_Y343_E345K]"
  Discrete label: "condition not met"

----------
Tested on: c-Src
Assay: phosphorylation enrichment, bacterial display (enrichment ratio); higher = better substrate or ligand; peptides without Tyr show the background

- Sequence data: "VVTFSYKPAGN [RBL2_Y544_P547A]"
  phosphorylation enrichment: 0.397
- Sequence data: "SYSGEYGGGGG [ZG16_Y30]"
  phosphorylation enrichment: 0.385
- Sequence data: "ANQDDYISFRH [IMP4_Y226]"
  phosphorylation enrichment: 1.11
- Sequence data: "GDYYCYLAEVA [YWHAG_Y133_R132C]"
  phosphorylation enrichment: 4.14
- Sequence data: "VRRRSYSAGNA [KANK1_Y324_K321R]"
  phosphorylation enrichment: 0.58
- Sequence data: "SDVNKYSTAFG [GJB3_Y16_G12D]"
  phosphorylation enrichment: 0.361
- Sequence data: "RKKEEYKMALF [F8_Y1990_YF]"
  phosphorylation enrichment: 0.555
- Sequence data: "RLSVDCGKKSK [TUBA4A_Y161_Y161C]"
  phosphorylation enrichment: 0.471
- Sequence data: "LEFGDYHPLKP [VPS35L_Y32]"
  phosphorylation enrichment: 0.821
- Sequence data: "MGSYNYLGFAR [SPTLC2_Y178]"
  phosphorylation enrichment: 1.1
- Sequence data: "SIKHKYVTALF [KCNH2_Y611_D609H_YF]"
  phosphorylation enrichment: 0.402
- Sequence data: "QAEELYFGKMG [YES1_Y159_W158L]"
  phosphorylation enrichment: 3.55
- Sequence data: "QEIATYRRLRE [KRT17_Y384_L388R]"
  phosphorylation enrichment: 0.537
- Sequence data: "DVFVSYDCGKS [SORL1_Y139_Y141C_YF]"
  phosphorylation enrichment: 0.449
- Sequence data: "EVTQDYGLDPK [FH_Y110_N107T]"
  phosphorylation enrichment: 0.504
- Sequence data: "IWGKKYPTCNS [PTPRZ1_Y53_N48I]"
  phosphorylation enrichment: 0.397
- Sequence data: "SQSKGYRPKLF [SIPA1L3_Y1376_G1371S_YF]"
  phosphorylation enrichment: 0.435
- Sequence data: "SVVVPYERPEV [TP53_Y220_P222R]"
  phosphorylation enrichment: 0.432
- Sequence data: "VNLVLHLSIAK [FBXO15_Y496_Y496H]"
  phosphorylation enrichment: 0.446
- Sequence data: "SGADSYEMEED [EGFR_Y316_C311S]"
  phosphorylation enrichment: 0.561
- Sequence data: "AIIGIYILRDD [CDH23_Y2949]"
  phosphorylation enrichment: 2.76
- Sequence data: "ALWFIYSHTRS [ENG_Y614_YF]"
  phosphorylation enrichment: 0.379
- Sequence data: "VDTFWYKFLKR [EPM2A_Y86]"
  phosphorylation enrichment: 0.371
- Sequence data: "FQKNVYSEELR [LMNA_Y211_I210V]"
  phosphorylation enrichment: 0.68
- Sequence data: "VYAANYYKLLG [ROR2_Y645_D644N]"
  phosphorylation enrichment: 1.18
- Sequence data: "FQRLQYIKQLG [SAMHD1_Y146_R145Q]"
  phosphorylation enrichment: 0.476
- Sequence data: "RSIGEYDVLRG [PRKDC_Y2936]"
  phosphorylation enrichment: 0.974
- Sequence data: "LGSNGCKKLLK [SEPSECS_Y334_Y334C]"
  phosphorylation enrichment: 0.663
- Sequence data: "IPVNGYQPVPA [ROR2_Y824_V819I]"
  phosphorylation enrichment: 0.472
